- systemName: Alpha-glucosidase MAL12 (Saccharomyces cerevisiae (strain ATCC 204508 / S288c), UniProt P53341)
- Sequence (P53341 whole entry): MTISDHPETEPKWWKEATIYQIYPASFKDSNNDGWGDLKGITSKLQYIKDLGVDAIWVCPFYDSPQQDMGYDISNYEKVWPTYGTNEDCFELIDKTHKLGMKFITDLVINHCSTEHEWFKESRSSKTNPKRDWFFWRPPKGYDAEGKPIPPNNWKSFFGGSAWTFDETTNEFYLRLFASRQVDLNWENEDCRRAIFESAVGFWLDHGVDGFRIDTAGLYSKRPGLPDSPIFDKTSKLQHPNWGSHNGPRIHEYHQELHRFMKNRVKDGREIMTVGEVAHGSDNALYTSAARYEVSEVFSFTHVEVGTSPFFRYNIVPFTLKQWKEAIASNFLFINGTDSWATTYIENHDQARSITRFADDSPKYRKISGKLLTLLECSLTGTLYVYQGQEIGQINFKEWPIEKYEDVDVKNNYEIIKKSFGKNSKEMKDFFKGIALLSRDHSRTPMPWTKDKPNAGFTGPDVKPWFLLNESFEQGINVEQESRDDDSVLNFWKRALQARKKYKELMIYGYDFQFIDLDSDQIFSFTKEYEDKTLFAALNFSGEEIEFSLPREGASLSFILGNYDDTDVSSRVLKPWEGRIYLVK
- assayProtocol: In vitro Assay of alpha-Glucosidasee Inhibitory Activity
- conditionSet: pH 6.8
valueType: pIC50
Numbers only, as −log10 of the molar value.

Sample records with pIC50:
- smilesEntry: "O=C(N/N=C/c1ccc(Cl)cc1)c1nc(-c2cc3ccccc3oc2=O)cs1"
  endpointResult: 4.98
- smilesEntry: "O=C(N/N=C/c1cccc(F)c1)c1nc(-c2cc3ccccc3oc2=O)cs1"
  endpointResult: 4.65
- smilesEntry: "O=C(N/N=C/c1ccccc1O)c1nc(-c2cc3ccccc3oc2=O)cs1"
  endpointResult: 4.43

Record pIC50 for all entries; do not skip any.
1. O=C(N/N=C/c1cccc(Br)c1)c1nc(-c2cc3ccccc3oc2=O)cs1
2. O=C(N/N=C/c1cc(Cl)ccc1O)c1nc(-c2cc3ccccc3oc2=O)cs1
3. COc1ccccc1/C=N/NC(=O)c1nc(-c2cc3ccccc3oc2=O)cs1
4. O=C(N/N=C/c1ccc(C(F)(F)F)cc1)c1nc(-c2cc3ccccc3oc2=O)cs1
5. CC(C)(C)c1cc(/C=N/NC(=O)c2nc(-c3cc4ccccc4oc3=O)cs2)c(O)c(C(C)(C)C)c1
6. O=C(N/N=C/c1ccc(O)cc1)c1nc(-c2cc3ccccc3oc2=O)cs1
7. O=C(N/N=C/c1ccc(O)c(F)c1)c1nc(-c2cc3ccccc3oc2=O)cs1

[4.85, 5.08, 4.19, 4.80, 4.99, 4.60, 4.78]
